# TARGET ENTITY: human TRPV4 (hTRPV4/CHO cells) (Homo sapiens)
# Construct: expressed in transfected cells; host or cells: CHO-K1
# Sequence (Q9HBA0 whole entry): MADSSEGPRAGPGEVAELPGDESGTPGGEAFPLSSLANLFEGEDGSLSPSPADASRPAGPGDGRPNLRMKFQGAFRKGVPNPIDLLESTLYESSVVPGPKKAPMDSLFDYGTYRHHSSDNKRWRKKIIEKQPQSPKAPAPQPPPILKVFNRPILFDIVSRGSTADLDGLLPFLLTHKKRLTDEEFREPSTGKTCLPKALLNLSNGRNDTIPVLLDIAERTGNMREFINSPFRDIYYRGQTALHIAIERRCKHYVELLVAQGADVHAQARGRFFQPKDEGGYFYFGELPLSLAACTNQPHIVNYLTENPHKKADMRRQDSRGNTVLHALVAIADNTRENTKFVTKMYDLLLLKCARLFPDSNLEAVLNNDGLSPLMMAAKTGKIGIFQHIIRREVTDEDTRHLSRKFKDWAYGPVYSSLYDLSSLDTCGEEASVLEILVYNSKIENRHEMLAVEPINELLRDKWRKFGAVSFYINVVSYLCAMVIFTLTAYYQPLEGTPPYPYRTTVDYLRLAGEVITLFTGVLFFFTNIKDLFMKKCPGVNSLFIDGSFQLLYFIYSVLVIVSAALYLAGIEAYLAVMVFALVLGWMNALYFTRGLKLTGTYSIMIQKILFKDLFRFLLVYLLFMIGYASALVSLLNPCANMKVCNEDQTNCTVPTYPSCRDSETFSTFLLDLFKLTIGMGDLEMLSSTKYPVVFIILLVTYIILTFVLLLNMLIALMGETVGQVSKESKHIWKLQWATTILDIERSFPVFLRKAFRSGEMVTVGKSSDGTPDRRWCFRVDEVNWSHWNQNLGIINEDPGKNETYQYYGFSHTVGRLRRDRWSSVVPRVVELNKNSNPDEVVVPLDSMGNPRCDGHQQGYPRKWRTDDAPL
# TEST PROTOCOL: Test Example 1: TRPV4 inhibitory activity (IC50 value), 4α-PDD stimulation, Fluo4 calcium fluorescence (FLIPR TETRA)
# Type: cell-based
# REPORTED CONDITIONS: Test Example 1, 4α-PDD stimulation, read-out: Test 1 IC50
QUANTITY KIND: IC50

# SMILES REPR, QUANTITY KIND, OBSERVED MEASUREMENT
records = [
    ("Cc1nc(C)c(-c2csc(NC(=O)C3CN(CC(F)(F)F)C3)n2)s1", "IC50", "100 to 1000 nM"),
    ("Cc1nc(C)c(-c2csc(NC(=O)CCC(=O)N[C@H](c3ccccc3)C(F)(F)F)n2)s1", "IC50", "100 to 1000 nM"),
    ("O=C(Nc1nc(-c2sc(CO)nc2CO)cs1)C1CN(c2ccc(C(F)(F)F)cc2)C1", "IC50", "< 100 nM"),
]

Next compound, please.
Query: GET /values?readout=IC50&item= `Cc1nc(C)c(-c2csc(NC(=O)Cc3cccc(S(=O)(=O)NCC(F)(F)F)c3)n2)s1`
Reply: < 100 nM

Hey, just so you know, these numbers are from patent US20170066759A1.
